Documented self-splicing fitness (ln) across a set of sequences
assay.overview: self-splicing fitness, log relative to wild type (ln ratio); higher = more splicing; Tetrahymena group I intron in knt gene, E. coli kanamycin selection, DiMSum; sequences stand for … in CUCUCU…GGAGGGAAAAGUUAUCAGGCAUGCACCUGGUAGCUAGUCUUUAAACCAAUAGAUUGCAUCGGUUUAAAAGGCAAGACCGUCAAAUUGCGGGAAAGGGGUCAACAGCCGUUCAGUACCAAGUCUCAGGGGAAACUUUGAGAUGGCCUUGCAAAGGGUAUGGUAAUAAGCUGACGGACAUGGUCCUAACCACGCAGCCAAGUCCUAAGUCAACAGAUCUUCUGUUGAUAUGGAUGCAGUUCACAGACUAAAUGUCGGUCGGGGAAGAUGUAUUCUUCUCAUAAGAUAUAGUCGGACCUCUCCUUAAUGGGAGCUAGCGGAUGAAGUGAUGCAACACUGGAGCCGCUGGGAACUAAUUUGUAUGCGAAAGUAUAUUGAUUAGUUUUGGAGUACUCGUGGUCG;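 note: selection with 25 µg/mL kanamycin versus none on LB agar overnight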
condition.notes: 37 °C

# biosequence, self-splicing fitness (ln)
data = [
    ("CGUGAGCAAUAUUACGGUGA", -2.04),
    ("UGAGAGCAAUAUUACGCGUG", 0.21),
    ("UUGCAGCAAUAUUACGUCGC", -2.16),
    ("AUUUAGCAAUAUUACGGGUG", -1.57),
    ("GUCAAGCAAUAUUACGAGCA", -2.29),
    ("UCCCAGCAAUAUUACGUUAA", -0.696),
    ("GCAGAGCAAUAUUACGGAGC", -2.84),
    ("GCGAAGCAAUAUUACGGGCG", -0.509),
    ("GAUCAGCAAUAUUACGUAGC", -0.402),
    ("GUUGAGCAAUAUUACGUUAU", -0.445),
    ("CAUGAGCAAUAUUACGUAAG", -0.568),
    ("GAGCAGCAAUAUUACGUUCC", -3.28),
    ("CCCCAGCAAUAUUACGCCGG", -1.88),
    ("GCCCAGCAAUAUUACGGACU", -0.873),
    ("CGUGAGCAAUAUUACGGCGC", -2.43),
    ("UGCAAGCAAUAUUACGUCGA", -0.989),
    ("UAAGAGCAAUAUUACGACCG", -2.21),
    ("AGAUAGCAAUAUUACGCUGA", -0.681),
    ("GACAAGCAAUAUUACGCGCA", -0.0559),
    ("UUUGAGCAAUAUUACGAUAU", -0.926),
    ("CCUAAGCAAUAUUACGGAUG", -1.16),
    ("GGUCAGCAAUAUUACGGCUC", -1.68),
]

====

Documented self-splicing fitness (ln) across a set of sequences
assay.overview: self-splicing fitness, log relative to wild type (ln ratio); higher = more splicing; Tetrahymena group I intron in knt gene, E. coli kanamycin selection, DiMSum; sequences stand for … in CUCUCU…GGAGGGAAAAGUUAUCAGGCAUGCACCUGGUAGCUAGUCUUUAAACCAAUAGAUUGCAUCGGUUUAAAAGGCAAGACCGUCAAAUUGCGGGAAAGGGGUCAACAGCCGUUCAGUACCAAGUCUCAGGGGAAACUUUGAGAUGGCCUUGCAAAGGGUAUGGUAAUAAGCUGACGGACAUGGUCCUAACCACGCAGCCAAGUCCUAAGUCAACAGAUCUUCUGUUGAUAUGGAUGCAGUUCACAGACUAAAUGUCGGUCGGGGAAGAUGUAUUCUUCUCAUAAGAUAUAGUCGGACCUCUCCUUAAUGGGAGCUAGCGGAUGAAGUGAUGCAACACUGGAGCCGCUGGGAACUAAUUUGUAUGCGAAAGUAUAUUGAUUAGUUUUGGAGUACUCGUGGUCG
condition.notes: 30 °C

# biosequence, self-splicing fitness (ln)
rows = [
    ("UGGCAGCAAUAUUACGCCAU", -3.71),
    ("GCGUAGCAAUAUUACGCGUG", -4.06),
    ("AGCGAGCAAUAUUACGUCUU", -2.73),
    ("UUGCAGCAAUAUUACGUCGG", -0.191),
    ("UUCCAGCAAUAUUACGUCCG", -2.28),
    ("AUACAGCAAUAUUACGUAGC", -3.19),
    ("UAAGAGCAAUAUUACGACCG", -2.9),
    ("CUCUAGCAAUAUUACGAUUA", -3.01),
    ("CAAUAGCAAUAUUACGAGGC", -3.6),
    ("ACUCAGCAAUAUUACGGCUU", -0.0445),
]

====

assay.overview: self-splicing fitness, log relative to wild type (ln ratio); higher = more splicing; Tetrahymena group I intron in knt gene, E. coli kanamycin selection, DiMSum; sequences stand for … in CUCUCU…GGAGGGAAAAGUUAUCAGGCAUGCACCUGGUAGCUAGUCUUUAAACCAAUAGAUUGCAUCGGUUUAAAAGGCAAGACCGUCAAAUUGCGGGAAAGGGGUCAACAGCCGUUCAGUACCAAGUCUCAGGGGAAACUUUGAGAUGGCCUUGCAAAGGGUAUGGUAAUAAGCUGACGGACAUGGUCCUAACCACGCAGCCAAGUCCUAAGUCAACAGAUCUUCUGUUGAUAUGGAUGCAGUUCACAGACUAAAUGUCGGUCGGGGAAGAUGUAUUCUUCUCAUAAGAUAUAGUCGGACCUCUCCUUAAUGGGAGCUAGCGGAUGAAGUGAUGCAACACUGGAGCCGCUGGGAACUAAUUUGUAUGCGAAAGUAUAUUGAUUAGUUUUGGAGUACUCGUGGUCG
condition.notes: 30 °C
measured.property: self-splicing fitness (ln)

# biosequence, data.value
rows = [
    ("CAGAAGCAAUAUUACGACAU", -3.13),
    ("GCCGAGCAAUAUUACGCAGG", -3.43),
    ("AACAAGCAAUAUUACGUAGU", -2.37),
]

====

assay.overview: self-splicing fitness, log relative to wild type (ln ratio); higher = more splicing; Tetrahymena group I intron in knt gene, E. coli kanamycin selection, DiMSum; sequences stand for … in CUCUCU…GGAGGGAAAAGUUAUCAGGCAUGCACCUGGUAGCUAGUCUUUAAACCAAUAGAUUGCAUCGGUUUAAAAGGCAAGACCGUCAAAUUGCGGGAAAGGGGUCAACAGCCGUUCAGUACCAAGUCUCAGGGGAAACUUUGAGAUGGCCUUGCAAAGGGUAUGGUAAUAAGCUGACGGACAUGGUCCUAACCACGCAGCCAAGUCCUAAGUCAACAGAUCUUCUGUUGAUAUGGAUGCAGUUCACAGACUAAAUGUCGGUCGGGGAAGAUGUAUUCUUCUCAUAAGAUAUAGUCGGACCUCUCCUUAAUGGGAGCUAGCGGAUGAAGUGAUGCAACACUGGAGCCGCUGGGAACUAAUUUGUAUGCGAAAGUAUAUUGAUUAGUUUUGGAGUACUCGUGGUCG
condition.notes: 37 °C
Documented self-splicing fitness (ln) across a set of sequences

# biosequence, self-splicing fitness (ln)
rows = [
    ("AUCCAGCAAUAUUACGGAAA", -1.02),
    ("UUGAAGCAAUAUUACGUGUA", -1.25),
    ("GAAGAGCAAUAUUACGGCGG", -2.19),
    ("ACAGAGCAAUAUUACGCCCU", -2.02),
    ("GAAUAGCAAUAUUACGCUUA", -0.146),
    ("CGCAAGCAAUAUUACGUUAC", -3.23),
    ("AACCAGCAAUAUUACGGUAA", -0.682),
    ("AUCAAGCAAUAUUACGAAAG", -2.74),
]

====

assay.overview: self-splicing fitness, log relative to wild type (ln ratio); higher = more splicing; Tetrahymena group I intron in knt gene, E. coli kanamycin selection, DiMSum; sequences stand for … in CUCUCU…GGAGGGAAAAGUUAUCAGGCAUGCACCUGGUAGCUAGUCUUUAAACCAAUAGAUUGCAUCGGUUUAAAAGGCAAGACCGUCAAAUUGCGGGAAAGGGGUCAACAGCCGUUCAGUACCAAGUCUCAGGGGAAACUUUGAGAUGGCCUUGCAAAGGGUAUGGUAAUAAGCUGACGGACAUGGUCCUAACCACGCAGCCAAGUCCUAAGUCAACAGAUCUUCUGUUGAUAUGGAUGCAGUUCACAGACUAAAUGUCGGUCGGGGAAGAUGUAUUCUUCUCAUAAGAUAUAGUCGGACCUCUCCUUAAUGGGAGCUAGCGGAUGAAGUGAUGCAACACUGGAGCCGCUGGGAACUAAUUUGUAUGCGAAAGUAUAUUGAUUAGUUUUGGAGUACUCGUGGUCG
condition.notes: 37 °C
# label = class 1 if self-splicing fitness (ln) >= -1 else class 0

# biosequence, answer.label
records = [
    ("UGUAAGCAAUAUUACGUAGC", "class 0"),
    ("AAAAAGCAAUAUUACGUGGG", "class 0"),
    ("AAACAGCAAUAUUACGCGAA", "class 0"),
    ("AACCAGCAAUAUUACGGCAG", "class 1"),
    ("UGUGAGCAAUAUUACGGAAG", "class 0"),
    ("GGGAAGCAAUAUUACGAGGA", "class 0"),
    ("AACCAGCAAUAUUACGAAAC", "class 1"),
    ("ACAAAGCAAUAUUACGGGGG", "class 0"),
    ("CAUUAGCAAUAUUACGUGUG", "class 0"),
    ("AUGCAGCAAUAUUACGUCCG", "class 0"),
    ("GCUAAGCAAUAUUACGGGGA", "class 0"),
    ("ACCGAGCAAUAUUACGUAUA", "class 0"),
    ("GCCUAGCAAUAUUACGUUAU", "class 1"),
    ("GCUAAGCAAUAUUACGUUUC", "class 1"),
    ("GUGUAGCAAUAUUACGGGAA", "class 0"),
    ("GGCAAGCAAUAUUACGAUAG", "class 0"),
    ("AACGAGCAAUAUUACGUCUA", "class 1"),
    ("UACCAGCAAUAUUACGUAGC", "class 0"),
    ("AAGUAGCAAUAUUACGGCGC", "class 1"),
    ("UAAUAGCAAUAUUACGUCGC", "class 0"),
    ("UGAAAGCAAUAUUACGCCCU", "class 1"),
    ("UCCCAGCAAUAUUACGCAAC", "class 0"),
]

Data credit: the supplement of paper PMC7877785
